target: CCK receptor (brain, cerebral cortex) (Cavia porcellus); construct: Cerebral cortex was dissected and used as a receptor source; from tissue; host or cells: guinea pig cerebral cortex membranes (male Hartley); assay: biochemical; assay type: binding, Male Hartley guinea pigs; conditions: IC50 ^125 I-CCK Brain, guinea pig cerebral cortex, ^125 I-CCK-33, 25° C., 2 hours
Sequence (H0VZC5 1-426): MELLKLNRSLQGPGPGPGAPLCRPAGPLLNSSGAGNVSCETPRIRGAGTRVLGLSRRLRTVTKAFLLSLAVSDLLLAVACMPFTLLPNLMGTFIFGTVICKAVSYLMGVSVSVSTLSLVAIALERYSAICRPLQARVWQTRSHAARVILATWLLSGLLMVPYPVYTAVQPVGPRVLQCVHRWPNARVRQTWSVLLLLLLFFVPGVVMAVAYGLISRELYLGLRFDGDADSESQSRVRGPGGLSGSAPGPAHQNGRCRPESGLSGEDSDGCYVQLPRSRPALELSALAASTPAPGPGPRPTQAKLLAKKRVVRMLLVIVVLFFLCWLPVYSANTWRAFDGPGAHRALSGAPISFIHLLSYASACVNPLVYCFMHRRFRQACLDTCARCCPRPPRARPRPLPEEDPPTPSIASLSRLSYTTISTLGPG
quantity-name: IC50 (µM)
Express your answer in µM, writing the number without its unit.

Please review the following examples before continuing.
{"molecule": "CN1C(=O)[C@H](NC(=O)Nc2cccc(Cl)c2)N=C(c2ccccc2)c2ccccc21", "experimental-value": 0.0075}
{"molecule": "O=C(Nc1ccc(Cl)cc1)NC1N=C(c2ccccc2F)c2ccccc2NC1=O (racemic)", "experimental-value": 0.3}
{"molecule": "CN1C(=O)C(N(C)C(=O)c2ccccc2Cl)N=C(c2ccccc2)c2ccccc21 (racemic)", "experimental-value": 100}
{"molecule": "CN1C(=O)C(NC(=O)Nc2cccc(Cl)c2)N=C(c2ccccc2)c2ccccc21 (stereo not shown)", "experimental-value": 0.0098}
{"molecule": "CN1C(=O)[C@@H](NC(=O)c2ccc(C#N)cc2)N=C(c2ccccc2F)c2ccccc21", "experimental-value": 31}
{"molecule": "COc1ccc2[nH]c(C(=O)NC3N=C(c4ccccc4F)c4ccccc4NC3=O)cc2c1 (racemic)", "experimental-value": 29}
{"molecule": "CN1C(=O)C(NC(=O)NC2CCCCC2)N=C(c2ccccc2)c2ccccc21 (stereo not shown)", "experimental-value": 3}
{"molecule": "CN1C(=O)[C@@H](NC(=O)c2ccccc2Br)N=C(c2ccccc2F)c2ccccc21", "experimental-value": 70}

Next item in the queue.
API: value(readout=IC50, system=CCK receptor (brain, cerebral cortex) (Cavia porcellus)) for record CCCCCc1ccc(C(=O)N[C@H]2N=C(c3ccccc3F)c3ccccc3N(C)C2=O)cc1 100

----------
Molecular target: CCK receptor (pancreas) (Rattus norvegicus)
Construct: The whole pancreas was dissected free of fat tissue and was homogenized; from tissue; host or cells: rat pancreas membranes (Sprague-Dawley)
Sequence (P30551 1-444): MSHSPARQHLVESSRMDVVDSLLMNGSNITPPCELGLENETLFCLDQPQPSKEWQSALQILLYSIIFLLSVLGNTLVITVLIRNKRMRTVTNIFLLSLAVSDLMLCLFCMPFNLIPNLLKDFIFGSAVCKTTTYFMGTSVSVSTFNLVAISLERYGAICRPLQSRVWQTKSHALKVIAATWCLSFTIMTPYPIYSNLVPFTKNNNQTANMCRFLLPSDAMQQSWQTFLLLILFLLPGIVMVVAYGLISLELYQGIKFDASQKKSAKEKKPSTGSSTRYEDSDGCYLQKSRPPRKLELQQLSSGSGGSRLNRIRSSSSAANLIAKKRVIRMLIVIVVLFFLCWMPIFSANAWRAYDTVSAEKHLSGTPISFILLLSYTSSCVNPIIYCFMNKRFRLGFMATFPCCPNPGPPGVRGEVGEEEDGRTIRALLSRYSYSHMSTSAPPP
Assay: CCK Receptor Binding (Pancreas): inhibition of ^125 I-CCK-33 binding
Parameters: species or system Male Sprague-Dawley rats
Conditions: IC50 ^125 I-CCK Pancreas, rat pancreas membranes, ^125 I-CCK-33, 37° C., 30 minutes
Recorded IC50, one value per entry.
Express your answer in µM, writing the number without its unit.

Requested field: IC50. Item: O=C1Nc2ccccc2C(c2ccccc2F)=NC1NCc1cc2ccccc2[nH]1 (racemic) 0.25

Requested field: IC50. Item: CN1CC(CC2N=C(c3ccccc3)c3ccccc3N(C)C2=O)c2ccccc21 (centres unmarked) 13

Requested field: IC50. Item: COc1cccc(NC(=O)NC2N=C(c3ccccc3)c3cccc(C)c3N(C)C2=O)c1 (centres unmarked) 0.002

Requested field: IC50. Item: COc1cccc(CC(=O)N[C@@H]2N=C(c3ccccc3)c3ccccc3N(C)C2=O)c1 45
